Test system: NOMO1
PROTOCOL_NOTES: cell viability relative to DMSO control; higher = less cytotoxic
SETUP_CONDITIONS: HPLM + 10% dialyzed FBS; 48 h; 1.71 µM
Kindly apply the following: YES if cell viability is less than 90%, NO in every other case.

Does this compound meet the criterion cell viability < 90%? `O=C1\C=C(/OC2=C1C=CC=C2C3=CC=CC=C3)N4CCOCC4` YES

Please check: cell viability for `CC[C@H]1OC(=O)[C@H](C)[C@@H](O[C@H]2C[C@@](C)(OC)[C@@H](O)[C@H](C)O2)[C@H](C)[C@@H](O[C@@H]2O[C@@H](C)C[C@H](N(C)C)[C@H]2O)[C@](C)(O)C[C@@H](C)C(=O)[C@H](C)[C@@H](O)[C@]1(C)O` , strictly under 90% or not? YES

is_below(cell viability, 90%) for CCCCCCCCCCCC(CC1OC(=O)C1CCCCCC)OC(=O)C(CC(C)C)NC=O (stereo not drawn) ? NO

API: query returns whether the compound falls strictly under 90% in cell viability. Query: `Cc1c[nH]c(/C=C2\C(=O)Nc3ccccc32)c1CCC(=O)O` YES

Hello, I'm reviewing records and need to know if cell viability of `Fc1ccc(C(c2ccc(F)cc2)N2CCN(C/C=C/c3ccccc3)CC2)cc1` is below 90%. Could you check? NO

Record `O=C1NC(=O)[C@@H](c2cn3c4c(cccc24)CCC3)[C@@H]1c1c[nH]c2ccccc12` : is its cell viability strictly below 90%? YES

Determine whether this compound shows cell viability lower than 90% (ties excluded): `CN(C)CCOC(c1ccccc1)c1ccccc1` NO

Determine if NC1CCC(N[C@@H]2C[C@H]2c2ccccc2)CC1 (stereo partly drawn) shows cell viability strictly lower than 90%. NO

* * *

Test system: P12-Ichikawa
PROTOCOL_NOTES: cell viability relative to DMSO control; higher = less cytotoxic
SETUP_CONDITIONS: HPLM + 10% dialyzed FBS; 48 h; 0.000781 µM
OBSERVATION_TYPE: cell viability (%)
Numbers only here, please. The scale is %.

What cell viability value was documented for this compound, `C#Cc1cccc(Nc2ncnc3cc(OCCOC)c(OCCO)cc23)c1` ? 113

Which cell viability reading was recorded for the compound `O=C(NC1CCOCC1)c1ccc(-c2cc(-c3c[nH]nc3-c3ccccn3)ccn2)cc1` ? 104

Requested field: cell viability. Item: `CNC(=O)[C@H](Cc1ccccc1)NC(=O)[C@H](CC(C)C)[C@H](CSc1cccs1)C(=O)NO` 86.3

Find the recorded cell viability belonging to `C[C@H]1CN(C[C@@H](C)O1)CC(=O)NC2=CC=C3SC4=C(CC3=C2)C=CC=C4\C5=C\C(=O)\C=C(/O5)N6CCOCC6` and report it. 91.6

Which cell viability is listed for `COc1cc(N2CCC(O)CC2)ccc1Nc1cc(Nc2ccccc2[S+](=O)([O-])C(C)C)c2cc[nH]c2n1` ? 91.6

* * *

Tested on: SEM cells
PROTOCOL_NOTES: AUC of viability dose-response curve (% viability x log10 dose units); higher = less sensitive
SETUP_CONDITIONS: RPMI 5 mM glucose + 10% dialyzed FBS; 48 h
I'd appreciate it if you marked entries YES when AUC of viability dose-response curve is lower than 400 and NO when it is not.

Strictly below 400: is that where AUC of viability dose-response curve of `O=C(NC1CCOCC1)c1ccc(-c2cc(-c3c[nH]nc3-c3ccccn3)ccn2)cc1` sits? NO

Bench note: check whether `C\C1=N\N=C(\C2=CC=C(N)C=C2)C3=CC4=C(OCO4)C=C3C1` shows AUC of viability dose-response curve below 400 NO

Criterion: AUC of viability dose-response curve strictly below 400. Is it met by CCCCN(CCCC)CCC(O)c1cc2c(Cl)cc(Cl)cc2c2cc(C(F)(F)F)ccc12 (stereo unspecified) ? NO

Lab note: AUC of viability dose-response curve threshold 400. Does this molecule come in strictly under it? CCN1CCCC1CNC(=O)c1cc(S(=O)(=O)CC)c(N)cc1OC (stereo unspecified) NO

Is AUC of viability dose-response curve of `Cc1cc2c(C(C)C)c(O)c(O)c(C=O)c2c(O)c1-c1c(C)cc2c(C(C)C)c(O)c(O)c(C=O)c2c1O` strictly below 400? NO

Regarding `CNC(=O)[C@H](Cc1ccccc1)NC(=O)[C@H](CC(C)C)[C@H](CSc1cccs1)C(=O)NO` , kindly confirm whether its AUC of viability dose-response curve is beneath 400. YES

Confirm or reject: AUC of viability dose-response curve of `COc1cc2ncnc(-n3nc(-c4ccccn4)nc3N)c2cc1OC` lies strictly below 400 YES

# TODO verify AUC of viability dose-response curve < 400 strictly for this molecule: `C#Cc1cccc(Nc2ncnc3cc(OCCOC)c(OCCO)cc23)c1` NO

Strictly below 400: is that where AUC of viability dose-response curve of `COc1cc(N2CCC(C(N)=O)CC2)ccc1Nc1nc(N)c(Cl)c(Nc2ccccc2[S+](=O)([O-])C(C)C)n1` sits? YES

In plain terms, does `CNC(=O)c1ccc(Nc2ncc(C(F)(F)F)c(NCc3nccnc3N(C)[S+](C)(=O)[O-])n2)cc1` come in under 400 for AUC of viability dose-response curve? YES

I wonder whether `CN1[C@@H]2CCC[C@H]1C[C@@H](NC(=O)c1nn(C)c3ccccc13)C2.Cl` has AUC of viability dose-response curve below 400. Can you tell? NO

Does the reported AUC of viability dose-response curve of the following molecule sit strictly below 400? `CCC[C@@H]1C[C@@H](C(=O)N[C@@H]([C@H]2O[C@H](SC)[C@H](O)[C@@H](O)[C@H]2O)[C@@H](C)O)N(C)C1.Cl` NO

Could you please tell me whether AUC of viability dose-response curve recorded for CC1SC/2=C(C(O)=O)/C(=O)C3=CC(=C(C=C3N12)N4CCN(CC4)C\C5=C(C)\OC(=O)O5)F (stereo unspecified) is less than 400? NO

Consider `N[C@@H](C(=O)N[C@H]1[C@H]2SC\C(=C(/N2C1=O)C(O)=O)Cl)C3=CC=CC=C3` . Does its AUC of viability dose-response curve lie strictly below 400? NO

AUC of viability dose-response curve strictly < 400 for this molecule? `C[N]1C=NC=C1[C@@](N)(C2=CC=C(Cl)C=C2)C3=CC=C4N(C)C(=O)\C=C(\C5=CC=CC(=C5)Cl)C4=C3` YES

Please state whether AUC of viability dose-response curve is below 400 for `C[C@@H]1C[C@H]2[C@@H]3\C=C(C)/C4=C/C5=C(C[C@]4(C)[C@H]3[C@@H](O)C[C@]2(C)[C@@]1(O)C(=O)COC(C)=O)C=N[N]5C6=CC=CC=C6` YES

Dear reviewer, please state whether `C[C@@H]1CC[C@@]2(OC1)O[C@H]3C[C@H]4[C@@H]5C/C=C6/C[C@H](CC[C@]6(C)[C@H]5CC[C@]4(C)[C@H]3[C@@H]2C)O[C@@H]7O[C@H](CO)[C@@H](O[C@@H]8O[C@@H](C)[C@H](O)[C@@H](O)[C@H]8O)[C@H](O)[C@H]7O[C@@H]9O[C@@H](C)[C@H](O)[C@@H](O)[C@H]9O` has AUC of viability dose-response curve strictly beneath 400. NO

Hello, is AUC of viability dose-response curve of the following molecule strictly smaller than 400? `Fc1cc(-c2cccc3ncc(-c4cnn(C5CCNCC5)c4)nc23)cc(F)c1CN1CCOCC1` YES

Does `CC(=O)N1CCN(c2ccc(OCc3nn(C)c(C)c3-c3cccc4c(CCCOc5cc(C)c(Cl)c(C)c5)c(C(=O)O)n(Cc5cccnc5)c34)cc2)CC1` have AUC of viability dose-response curve strictly under 400? NO

Record `COC(=O)N1CCN(Cc2cccc(NC(=O)Nc3ccc(C)nc3)c2F)CC1` : is its AUC of viability dose-response curve strictly below 400? NO

Lab note: AUC of viability dose-response curve threshold 400. Does this molecule come in strictly under it? COC(=O)C1=C(C)NC(C)=C(C(=O)OCCN2CCN(C(c3ccccc3)c3ccccc3)CC2)C1c1cccc([N+](=O)[O-])c1.Cl.Cl (stereo unspecified) NO

API: query returns whether the molecule falls strictly under 400 in AUC of viability dose-response curve. Query: `CCNC(=O)C[C@@H]1\N=C(C2=CC=C(Cl)C=C2)/C3=C(C=CC(=C3)OC)[N]4C(=NN=C14)C` YES

Please determine if `Cn1c2ccccc2c2c3c(c4c5ccccc5n(CCC#N)c4c21)CNC3=O` is below 400 in terms of AUC of viability dose-response curve. YES

Record `O=C(NC1CCNCC1)c1n[nH]cc1NC(=O)c1c(Cl)cccc1Cl` : is its AUC of viability dose-response curve strictly below 400? YES

Hello, is AUC of viability dose-response curve of the following molecule strictly smaller than 400? `O=c1cc(O)c(Cl)c[nH]1` NO

Item `OCc1ccccc1O[C@@H]1O[C@H](CO)[C@@H](O)[C@H](O)[C@H]1O` : AUC of viability dose-response curve beneath 400, strictly? NO

Is the reported AUC of viability dose-response curve for `CN1CCCN(C(=O)c2cccc(-c3ccc(/C=C4/C(=O)Nc5ccc(Cl)cc54)o3)c2)CC1` strictly below 400? YES

I'd appreciate it if you could check whether `CNC(=O)c1ccccc1Nc1nc(Nc2ccc(N3CCOCC3)cc2OC)ncc1Cl` has AUC of viability dose-response curve smaller than 400. YES

Is AUC of viability dose-response curve strictly under 400 for the entry `C[C@H]([C@H](O)CCC(C)(C)O)[C@H]1CC[C@@]2(O)C/3=C/C(=O)[C@@H]4C[C@@H](O)[C@@H](O)C[C@]4(C)[C@H]3CC[C@]12C` ? NO
